Each record here notes measured EC50 (ng/ml), inhibition of proliferation of BT474 cells.
Target: T1, human Nectin-4 (human, UniProt Q96NY8 32-510)
T1 sequence (looked up): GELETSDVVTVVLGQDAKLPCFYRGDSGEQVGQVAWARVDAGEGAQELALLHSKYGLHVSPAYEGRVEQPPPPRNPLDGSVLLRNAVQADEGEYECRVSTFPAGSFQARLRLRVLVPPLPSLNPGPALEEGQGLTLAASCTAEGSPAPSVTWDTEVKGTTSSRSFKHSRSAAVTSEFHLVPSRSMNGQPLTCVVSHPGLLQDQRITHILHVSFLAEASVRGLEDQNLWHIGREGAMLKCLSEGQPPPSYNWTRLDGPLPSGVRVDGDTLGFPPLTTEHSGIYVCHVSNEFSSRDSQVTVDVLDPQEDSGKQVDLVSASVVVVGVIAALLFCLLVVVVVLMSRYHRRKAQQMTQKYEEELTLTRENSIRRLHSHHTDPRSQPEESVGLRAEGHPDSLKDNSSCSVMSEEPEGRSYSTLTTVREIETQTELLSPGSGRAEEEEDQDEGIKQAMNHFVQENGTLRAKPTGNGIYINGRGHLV
Assay: cell-based or functional assay
Could you give me the number in ng/mL? Just the number is fine.

Please report the recorded EC50 (ng/ml), inhibition of proliferation of BT474 cells for 42D20 hz63-E (antibody, V domains shown, vcMMAE conjugated to the TECP-reduced antibody; residues not stated; DAR 4.0±1) VH: QVQLQESGPGLVKPSETLSLTCTVSGFSLIDYGVSWIRQPPGKGLEWIGVIWGGGKIYYNSVLKSRVTISKDNSKSQVSLKLSSVTAADTAVYYCAKQGGLLFYAMDYWGQGTLVTVSS VL: DIVMTQSPDSLAVSLGERATINCKSSQSLLNTYSQKNYLAWYQQKPGQSPKLLIYFASTRESGVPDRFSGSGSETDFTLTISSLQAEDLAVYFCQQHYNTPFTFGAGTKLELKR .
2.42

New cases:
I'd like to know its EC50 (ng/ml), inhibition of proliferation of BT474 cells. The binder in question is 42D20 hz10-E (antibody, V domains shown, vcMMAE conjugated to the TECP-reduced antibody; residues not stated; DAR 4.0±1) VH: QVQLQESGPGLVKPSETLSLTCTVSGFSLIDYGVSWIRQPPGKGLEWIGVIWGDGKIYYNSVLKSRVTISKDNSKSQVSLKLSSVTAADTAVYYCAKQGGLLFYAMDYWGQGTLVTVSS VL: DIVMTQSPDSLAVSLGERATINCKSSQSLLNSYSQKNYLAWYQQKPGQPPKLLIYFASTRESGVPDRFSGSGSGTDFTLTISSLQAEDVAVYYCQQHYNTPFTFGAGTKLELKR
9.41

All figures here come from patent US20230265183A1.
